Values were extracted from PubChem BioAssay AID504834.

method-summary: Primary qHTS for delayed death inhibitors of the malarial parasite plastid, 96 hour incubation
run-parameters: P. falciparum luciferase reporter growth; series mostly up to 28.7 µM
Screen size: about 320,000 compounds; about 22,000 (6.9%) were called active. About 27% were inconclusive and are not listed. Calls follow the shape of the dose curve; as a rule, active = well fitted inhibition curve with a large enough effect; inconclusive = small, poorly fitted or top-dose-only effect, or another doubt; inactive = no such curve, though single readings can be large or run the other way. The full list was thinned out, with actives kept by preference.
Valid outcomes are listed here; reply with one: active, inactive

Challenge: Record request — test call for "Cc1cc(C)cc(N(CC(=O)NC2CCCC2)C(=O)CCC(=O)Nc2nccs2)c1"
Response given: inactive

Challenge: Record request — test call for "CC(C)=C1SC(N2CCN(c3ccc(C)c(Cl)c3)CC2)=NC1=O"
Response given: inactive

Challenge: Record request — test call for "Cc1ccc(F)cc1NC(=O)c1ccc2c(c1)OCO2"
Response given: inactive

Challenge: Record request — test call for "COc1ccc(/C=C/C(=O)c2ccc(OC)cc2O)cc1"
Response given: inactive

Challenge: Record request — test call for COC(=O)c1ccc(C23CC4(C2)[C@H](CN(Cc2cccnc2)[C@@H]4c2ccccc2)C3c2ccc(Cl)nc2)cc1 (some centres not stated)
Response given: active

Challenge: Record request — test call for "O=C(Nc1ccccc1-c1nnn(CC(=O)N2CCN(c3ccccc3)CC2)n1)c1cccs1"
Response given: active

Challenge: Record request — test call for CC(=O)N/C(=C\c1ccccc1)C(=O)OC(C)C(=O)N(C)c1ccccc1 (configuration not stated)
Response given: inactive

Challenge: Record request — test call for "Cc1cc2c(cc1S(=O)(=O)NCc1ccc(Cl)cc1)OCC(=O)N2"
Response given: inactive

Challenge: Record request — test call for "Cc1cc(OCCN2CCCC2)ccc1C(C)C"
Response given: inactive

Challenge: Record request — test call for "COc1ccc(/C=N/Nc2cc(N3CCOCC3)nc(C)n2)c(OC)c1"
Response given: inactive

Challenge: Record request — test call for "Cc1cc(OCCN2CCCC2)cc(C(C)C)c1"
Response given: active

Challenge: Record request — test call for CCS(=O)(=O)N1Cc2ccccc2CC1C(=O)Nc1ccc(OC)cc1OC (configuration not stated)
Response given: inactive

Challenge: Record request — test call for "O=C(COc1ccc(F)cc1)N(CC1=CCS(=O)(=O)C1)c1ccccc1"
Response given: inactive

Challenge: Record request — test call for "COc1ccc(C(=O)NNc2cc(C)nc(NNC(=O)c3ccc(OC)cc3)n2)cc1"
Response given: inactive

Challenge: Record request — test call for "Cc1ccc2nc(COc3ccc(N(C)S(=O)(=O)c4ccccc4)cc3)cc(=O)n2c1"
Response given: active

Challenge: Record request — test call for "O=S1(=O)N=C(N(CCO)/N=C/c2ccccc2F)c2ccccc21"
Response given: inactive

Challenge: Record request — test call for "CC(=O)Nc1ccc(Nc2cc(C)nc(Nc3ccc(NC(C)=O)cc3)n2)cc1"
Response given: active

Challenge: Record request — test call for "CC(=O)Nc1ccc(Nc2c3ccccc3nc3ccccc23)cc1"
Response given: inactive

Challenge: Record request — test call for Cc1cccc(NC(=O)c2ccc3c(=O)n(CC4CCCO4)c(=S)[nH]c3c2)c1 (configuration not stated)
Response given: inactive

Challenge: Record request — test call for "O=C(COC(=O)CCc1nc2ccccc2c(=O)[nH]1)Nc1ccc(N2CCOCC2)cc1"
Response given: inactive

Challenge: Record request — test call for Cc1cc(C)c(NC(=O)CN2C(=O)NC(Cc3ccccc3)C2=O)c(C)c1 (configuration not stated)
Response given: inactive

Challenge: Record request — test call for "O=C(NCCc1ccccc1)c1ccc2c(c1)N(Cc1ccccc1)CCS2"
Response given: inactive
